Procedure summary: reversal of MRP1-mediated doxorubicin resistance, pilot screen, H69AR cells, doxorubicin co-treatment (AID 601)
Details: H69AR cells + 2 uM doxorubicin, CellTiter-Glo, 72 h; measured here: viability with 2 uM doxorubicin; at 10 µM; stronger effect = lower value
Parameter viability: see the listing below.
Readout: viability (%)

                                    molecule  assay_value
 0  CC(=O)Nc1cccc(OCC(O)Cn2cnc3ccccc32)c1 (stereo unspecified)         92.7
 1           CCc1nc(C)c(-c2ccccc2)c(=O)[nH]1         87.2
 2         CCN(CC)c1ccc(/C=N/n2nnnc2N)c(O)c1         57.2
 3  Cc1ccc(N2C(=O)c3ccccc3C2Nc2cccnc2)nc1 (stereo unspecified)         94.1
 4  CCOc1ccc2[nH]c(=O)c(C(c3nnnn3CC3CCCO3)N3CCc4ccccc4C3)cc2c1 (stereo unspecified)         49.2
 5  COCCn1nnnc1C(C(C)C)N1CCN(C(=O)c2ccco2)CC1 (stereo unspecified)         98.2
 6  COc1cccc(-c2nnc(SCC(=O)N3CCCc4ccccc43)o2)c1         85.8
 7            COC(C)(C)c1cc(C(C)(C)C)nc(N)n1         91.2
 8  CC1=CC2=C(OC1N(C)C)c1cccc3cccc(c13)C2=O (stereo unspecified)         78.9
 9     CCCCc1c(O)nc(SCC(=O)c2ccccc2)[nH]c1=O           83
10  COc1ccccc1NC(=O)c1cc2n(n1)C(C(F)(F)F)CC(c1ccc3c(c1)OCO3)N2 (stereo unspecified)         87.1
